- ASSAY_OVERVIEW: Stability of crystalline forms held at room temperature, purity by HPLC
- Format: physicochemical
- ASSAY_CONTEXT: room temperature, duration 7 days, HPLC; hydrochloride

# COMPOUND, Purity (%)
measured = [
    ("CC[C@@]1(O)C(=O)OCc2c1cc1n(c2=O)Cc2cc3c(CN(C)C)c(O)ccc3nc2-1.Cl [Form G, topotecan hydrochloride]", 99.00),
    ("CC[C@@]1(O)C(=O)OCc2c1cc1n(c2=O)Cc2cc3c(CN(C)C)c(O)ccc3nc2-1.Cl [Form D, topotecan hydrochloride]", 99.17),
    ("CC[C@@]1(O)C(=O)OCc2c1cc1n(c2=O)Cc2cc3c(CN(C)C)c(O)ccc3nc2-1.Cl [Form H, topotecan hydrochloride]", 99.92),
    ("CC[C@@]1(O)C(=O)OCc2c1cc1n(c2=O)Cc2cc3c(CN(C)C)c(O)ccc3nc2-1.Cl [Form I, topotecan hydrochloride]", 99.56),
    ("CC[C@@]1(O)C(=O)OCc2c1cc1n(c2=O)Cc2cc3c(CN(C)C)c(O)ccc3nc2-1.Cl [Form E, topotecan hydrochloride]", 99.31),
]

This collection of values is drawn from patent US8013158B2.
